Here's a roundup of IC50 values tested on Coagulation factor XI (Homo sapiens, UniProt P03951), taken from various published works.

{"compound_structure": "CCC[C@@H](NC1CCCCC1)C(=O)N1CCC[C@H]1C(=O)NCc1ccc2c(N)nccc2c1", "IC50": "0.171 µM"}

Answer with IC50 of N=C(N)c1ccc(CNC(=O)[C@@H](NC(=O)[C@@H](CC2CCCCC2)NCC(=O)O)C2CCNCC2)cc1 measured for Coagulation factor XI (Homo sapiens, UniProt P03951).
> 44 µM

Answer with IC50 of COC(=O)Nc1ccc(-c2[nH]c([C@H](C)NC(=O)/C=C/c3cc(Cl)ccc3-n3cnnn3)nc2Cl)cc1 measured for Coagulation factor XI (Homo sapiens, UniProt P03951).
0.04 µM
